# System: SH-SY5Y cells
# testSummary: AK (adenylate kinase) release ToxiLight cytotoxicity assay; also: reference of the scale not given here
# testSettings: PKIS2 primary screening
The threshold is 90. Values of AK beneath it are tagged condition met; values meeting or exceeding it are tagged condition not met.

COC(=O)Nc1nc2ccc(Oc3ccc(NC(=O)Nc4cc(C(F)(F)F)ccc4F)cc3)cc2n1C | condition not met

Data request: Determine if C[C@@H]1CC[C@@H](C(=O)Nc2ccccc2)CN1c1cc(-c2ccc3c(N)n[nH]c3c2)nc(N)n1 shows AK strictly lower than 90.
Data returned: condition met

Data request: Determine if COC(=O)c1cccc(NC(=O)NCCNc2ccnc(Nc3ccc(F)cc3)n2)c1 shows AK strictly lower than 90.
Data returned: condition not met

Data request: Determine if COc1cc(Nc2nccc(N3CCC(NC(=O)C(C)c4ccc(Cl)cc4)C3)n2)cc(OC)c1OC (stereo not drawn) shows AK strictly lower than 90.
Data returned: condition not met

Data request: Determine if O=C(NCCNc1ccnc(Nc2ccc(F)cc2)n1)Nc1ccccc1F shows AK strictly lower than 90.
Data returned: condition met

Data request: Determine if Cc1cccc2c(-c3ccncn3)c(-c3ccc(F)cc3)nn12 [UNC10225097A] shows AK strictly lower than 90.
Data returned: condition met

Data request: Determine if CCn1cnc2c(NCc3ccccc3)ncnc21 [UNC10225370A] shows AK strictly lower than 90.
Data returned: condition met

Data request: Determine if Cc1c2ccc(N(C)c3ccnc(Nc4cccc(S(N)(=O)=O)c4)n3)cc2nn1Cc1ccccc1 shows AK strictly lower than 90.
Data returned: condition met

Data request: Determine if Cn1cc(-c2ccc3c(c2)CCN3C(=O)Cc2cc(F)cc(F)c2F)c2c(N)ncnc21 [UNC10225071A] shows AK strictly lower than 90.
Data returned: condition not met

Data request: Determine if COc1cccc(CNC(=O)NC2CCN(c3ccnc(Nc4ccc(F)cc4)n3)C2)c1 (stereo not drawn) shows AK strictly lower than 90.
Data returned: condition not met

Data request: Determine if C[C@H]1CC[C@@H](C(=O)Nc2ccccc2)CN1c1cc(-c2ccc3c(N)n[nH]c3c2)nc(N)n1 shows AK strictly lower than 90.
Data returned: condition not met

Data request: Determine if CN1CCN(CCNc2nc3ccc(Oc4ccc(NC(=O)Nc5cc(C(F)(F)F)ccc5F)cc4)cc3[nH]2)CC1 shows AK strictly lower than 90.
Data returned: condition not met

Data request: Determine if CN(C)CC(O)COc1ccc(Nc2nccc(-c3cnn4nc(N5CCOCC5)ccc34)n2)cc1 (stereo not drawn) [UNC10225197A] shows AK strictly lower than 90.
Data returned: condition not met

* * *

# Tested on: endogenous TFE3
# testSummary: TFE3 nuclear translocation, immunocytochemistry high-content imaging
# Format: cell-based
# testSettings: PKIS2 primary screening
# TFE3 % annotations
The figure you give is taken to be in %; do not add the unit.

Data request: Quick check: TFE3 % on endogenous TFE3, item Nc1ncc(-c2ccc3nccc(-c4ccncc4)c3c2)cc1S(=O)(=O)N1CCCCC1 [UNC10225117A] ?
Data returned: 4.68

Data request: Quick check: TFE3 % on endogenous TFE3, item Cc1ccc2c(-c3ccnc(Nc4ccc(C(F)(F)F)cc4)n3)cnn2n1 [UNC10225224A] ?
Data returned: 15.88

Data request: Quick check: TFE3 % on endogenous TFE3, item FC(F)(F)c1ccc(-c2ncn(CCCN3CCOCC3)c2-c2ccncc2)cc1 [UNC10225425A] ?
Data returned: 9.69

Data request: Quick check: TFE3 % on endogenous TFE3, item COc1cccc(CNC(=O)NC2CCN(c3ccnc(Nc4cc(OC)c(OC)c(OC)c4)n3)C2)c1 (stereo not shown) ?
Data returned: 15.97
